# Assay notes: qHTS Screen of the MIPE 4.0 Collection Against Ewings Sarcoma (TC32) (AID 1259256); also: nearly all actives have a fitted effect of over 45% in size; also: potency is read from the fitted curve at half-maximal effect
# Recorded conditions: TC32 Ewing sarcoma viability, CellTiter-Glo, 48 h; series mostly up to 45.8 µM
Results filed as inconclusive are left out. Active and inactive are the calls of the source. Calls follow the shape of the dose curve; as a rule, active = well fitted inhibition curve with a large enough effect; inconclusive = small, poorly fitted or top-dose-only effect; inactive = no such curve, though single readings can be large or run the other way.
Readout label: Potency

| Compound | Potency |
| --- | --- |
| COc1ccc(Nc2nccc(NCCO)n2)cc1 | inactive |
| CC[C@]12C=CCN3CC[C@@]4(c5cc([C@@]6(C(=O)OC)C[C@H]7C[C@@H](C(C)(F)F)CN(Cc8c6[nH]c6ccccc86)C7)c(OC)cc5N(C)[C@H]4[C@@](O)(C(=O)OC)[C@H]1OC(C)=O)[C@@H]32 | inactive |
| COc1cc(C)c(C=CC(C)=CC=CC(C)=CC(=O)O)c(C)c1C | inactive |
| CC(C)N(CC[C@H](c1ccccc1)c1cc(CO)ccc1O)C(C)C | inactive |
| COc1cc2c(cc1O)CCC1C2CC[C@@]2(C)C1CC[C@@H]2O (stereo partly drawn) | 2.64 µM (active) |
| COc1cc2c(Nc3ccc(Cl)c(Cl)c3F)ncnc2cc1OCC1C[C@@H]2CN(C)C[C@H]2C1 | 13.2 µM (active) |
| O=C(NC1CC1)c1cccc(-c2ccc3c(NC(=O)C4CC4)n[nH]c3c2)c1 | 1.32 µM (active) |
| COc1ccc(CCC(=O)c2c(O)cc(O[C@@H]3O[C@H](CO)[C@@H](O)[C@H](O)[C@@H]3O[C@@H]3O[C@@H](C)[C@H](O)[C@@H](O)[C@@H]3O)cc2O)cc1O | 9.35 µM (active) |

Challenge: What value of measured Potency is listed for O=c1ccn([C@@H]2O[C@H](CO)[C@H](O)[C@@H]2F)c(=O)[nH]1 ?
Response given: 18.7 µM (active)

Challenge: Look up Potency for this compound: CC(=O)SCC(Cc1ccccc1)C(=O)NCC(=O)OCc1ccccc1 (stereo not drawn)
Response given: 0.743 µM (active)
